system.name: T1, human erythrocyte complement receptor 1 (CR1) (human, UniProt P17927 42-2039)
T1 construct: whole, on cells; also called C3b receptor; CD35
protocol.summary: erythrocyte binding assay, antibody with RBCs in solution, A405 read-out
property.measured: ng of antibody at A405 0.4
Please don't drop the unit; write it after the number.

[ask] Requested read-out: ng of antibody at A405 0.4. Entry: E DI VH1/VL2 (antibody, V domains shown) VH: DVQLQESGPGLVKPSQTLSLTCTVSGYSMTSDYAWNWIRQFPGKGLEWIGYISYSGSTTYHPSVKSRITISRDTSKNQFFLQMNSVTTEDTATTYCTTIINYDKYDWYFDYWGQGTTVTVSS VL: DIVLTQSPASLVVSVRQRATISCRASQSVRTSSYSYIHWYQQKPGQPPKLLIKYASSLESGVPARFSGSGSGTDFTLNISPVEEEDTATYYCQHSWEIPWTFGPGTTVEIK
[reply] 9 ng

[ask] Can you handle E DI VH5/VL1 (antibody, V domains shown, also called immunogenicity-reduced Ab VH5/VL1) VH: DVQLQESGPGLVKPSQTLSLTCTVTGYSITSDYAWNWIRQFPGKGLEWMGYISYSGSTSYHPSLKSRISISRDTSKNQFFLQMNSVTTEDTATYYCTTIINYDKYDWYFDVWGQGTTVTVSS VL: DIVLTQSPASLVVSVRQRATISCRASQSVRTSSYSYIHWYQQKPGQPPKLLIYYASSLESGVPARFSGSGSGTDFTLNISPVEEEDTATYYCQHSWEIPWTFGPGTKVEIK next?
[reply] 2 ng

[ask] Can you handle E DI VH2/VL1 44H1 (antibody, V domains shown, also called immunogenicity-reduced Ab VH2/VL1) VH: DVQLQESGPGLVKPSQTLSLTCTVSGYSMTSDYAWNWIRQFPGKGLEWIGYISYSGSTSYHPSVKSRITISRDTSKNQFFLQMNSVTTEDTATYYCTTIINYDKYDWYFDVWGQGTTVTVSS VL: DIVLTQSPASLVVSVRQRATISCRASQSVRTSSYSYIHWYQQKPGQPPKLLIYYASSLESGVPARFSGSGSGTDFTLNISPVEEEDTATYYCQHSWEIPWTFGPGTKVEIK next?
[reply] 12 ng

[ask] Can you handle E DI VH3/VL1 12H10 (antibody, V domains shown, also called immunogenicity-reduced Ab VH3/VL1) VH: DVQLQESGPGLVKPSQTLSLTCTVSGYSMTSDYAWNWIRQFPGKGLEWIGYISYSGSTSYHPSLKSRISISRDTSKNQFFLQMNSVTTEDTATYYCTTIINYDKYDWYFDVWGQGTTVTVSS VL: DIVLTQSPASLVVSVRQRATISCRASQSVRTSSYSYIHWYQQKPGQPPKLLIYYASSLESGVPARFSGSGSGTDFTLNISPVEEEDTATYYCQHSWEIPWTFGPGTKVEIK next?
[reply] 4 ng

[ask] Can you handle E DI VH4/VL2 (antibody, V domains shown, also called E DI V4/VL2) VH: DVQLQESGPGLVKPSQTLSLTCTVSGYSITSDYAWNWIRQFPGKGLEWIGYISYSGSTSYHPSLKSRISISRDTSKNQFFLQMNSVTTEDTATYYCTTIINYDKYDWYFDVWGQGTTVTVSS VL: DIVLTQSPASLVVSVRQRATISCRASQSVRTSSYSYIHWYQQKPGQPPKLLIKYASSLESGVPARFSGSGSGTDFTLNISPVEEEDTATYYCQHSWEIPWTFGPGTTVEIK next?
[reply] 30 ng
